# tgt: T1, human B7-H3 (4Ig-B7-H3 variant) (Homo sapiens, UniProt Q5ZPR3)
# T1 construct: His tag (6xHis) (C)
# T1 sequence (Q5ZPR3 with tags, fused parts or gaps): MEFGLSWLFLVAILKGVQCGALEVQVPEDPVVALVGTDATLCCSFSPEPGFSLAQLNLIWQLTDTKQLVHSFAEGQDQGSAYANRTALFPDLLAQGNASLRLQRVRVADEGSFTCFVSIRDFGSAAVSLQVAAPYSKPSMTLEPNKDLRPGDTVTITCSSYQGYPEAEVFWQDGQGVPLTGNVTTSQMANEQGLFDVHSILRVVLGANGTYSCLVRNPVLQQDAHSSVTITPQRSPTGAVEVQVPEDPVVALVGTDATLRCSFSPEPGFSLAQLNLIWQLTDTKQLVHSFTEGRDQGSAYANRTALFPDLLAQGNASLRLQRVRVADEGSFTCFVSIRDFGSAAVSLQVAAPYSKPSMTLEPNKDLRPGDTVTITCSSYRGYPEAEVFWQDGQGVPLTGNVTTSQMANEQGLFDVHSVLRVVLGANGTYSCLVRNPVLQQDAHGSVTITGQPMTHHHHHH
# test_summary: Biacore T200 SPR binding kinetics, mAb capture, soluble ECD of human B7-H3
# condition_context: 1:1 binding model
measured_metric: ka (1/Ms) huB7-H3

>>> result("Ab13: mouse hybridoma derived anti-B7-H3 monoclonal antibodies (mAbs) (antibody, V domains shown) VH: DVQLQESGPDLVKPSQSLSLTCTVTGYSITSGYSWHWIRQFPGNKLEWMGYIHSSGSTNYNPSLKSRISINRDTSKNQFFLQLNSVTTEDTATYYCAGYDDYFEYWGQGTTLTVSS VL: DIVMTQSQKFMSTSVGDRVSVTCKASQNVGFNVAWYQQKPGQSPKALIYSASYRYSGVPDRFTGSGSGTDFTLTISNVQSEDLAEYFCQQYNSYPFTFGSGTKLEIK")
"330000 M⁻¹ s⁻¹"
>>> result("Ab10: mouse hybridoma derived anti-B7-H3 monoclonal antibodies (mAbs) (antibody, V domains shown) VH: DVQLQESGPGLVKPSQSLSLTCTVTGYSITSDYAWNWIRQFPGNRLEWMGHINYSGITNYNPSLKSRISITRDTSKNQFFLQLYSVTTEDTATYFCARRSLFYYYGSSLYAMDYWGQGTSVTVSS VL: DVVMTQSPFSLPVSLGDQASISCRSSQSLVHSNGNTYLHWYLQKPGQSPKLLIYKVSNRFSGVPDRFSGSGSGTDFTLKISRVEAEDLGVYFCSQSTHVPWTFGGGTKLEIK")
"41000 M⁻¹ s⁻¹"
>>> result("Ab11: murine anti-B7-H3 mAbs; mouse hybridoma derived (antibody, V domains shown) VH: EVKLVESGGGLVQPGGSLRLSCATSGFTFTNYYMSWVRQPPGKALEWLGFIRNKANDYTTEYSASVKGRFTISRDNSQSILYLQMNTLRAEDSATYYCARESPGNPFAYWGQGTLVTVSA VL: DIVMTQSPSSLTVTAGEKVTMTCKSSQSLLNSGTQKNFLTWYQQKPGQPPKLLIYWASTRESGVPDRFTGSGSGTDFTLTISSVQAEDLAVYFCQNDYIYPLTFGAGTKLELK")
"20000 M⁻¹ s⁻¹"
>>> result("Ab14: mouse hybridoma derived anti-B7-H3 monoclonal antibodies (mAbs) (antibody, V domains shown) VH: EVKLVESGGGLVKPGGSLKLSCAASGFTFSSYGMSWVRQTPEKRLEWVATISGGGTNTYYPDSVEGRFTISRDNAKNFLYLQMSSLRSEDTALYYCARHYGSQTMDYWGQGTSVTVSS VL: DIQMTQSPASLSASVGETVTITCRTSGNIHNYLTWYQQKQGKSPQLLVYNAKTLADGVPSRFSGSGSGTQFSLKINSLQPEDFGSYYCQHFWSIMWTFGGGTKLEIK")
"110000 M⁻¹ s⁻¹"
